- experimental_target: CX3CR1 (Homo sapiens)
- Sequence (P49238 1-355): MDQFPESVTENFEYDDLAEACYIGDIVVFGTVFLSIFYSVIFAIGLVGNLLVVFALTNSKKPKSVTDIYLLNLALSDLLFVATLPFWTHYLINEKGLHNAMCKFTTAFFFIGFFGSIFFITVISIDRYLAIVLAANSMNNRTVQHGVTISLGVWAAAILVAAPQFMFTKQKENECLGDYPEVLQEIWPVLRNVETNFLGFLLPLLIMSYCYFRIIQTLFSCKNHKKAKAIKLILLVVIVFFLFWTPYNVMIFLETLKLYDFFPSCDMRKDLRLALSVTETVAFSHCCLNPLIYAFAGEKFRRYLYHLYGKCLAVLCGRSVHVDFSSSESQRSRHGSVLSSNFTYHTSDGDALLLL
- assay_details: [3H]AZD8797 competition binding, CHO-hCX3CR1 membranes
- Parameters: host or cells: CHO-K1
- recorded_conditions: 2 nM [3H]AZD8797, n=7
outcome_measure: pKi
On this scale, pKi is minus log10 of a concentration expressed in M (mol/L).

pKi recorded for this compound, `CC(C)C[C@H](CO)Nc1nc(S[C@@H](C)c2ccccc2)nc2nc(N)sc12` , is 8.14

###

- experimental_target: CX3CR1 (Homo sapiens)
- assay_details: 125I-CX3CL1 competition binding, CHO-hCX3CR1 membranes
- Parameters: host or cells: CHO-K1
- recorded_conditions: 10 pM 125I-CX3CL1, n=3; read-out: EC50, displacement of 125I-CX3CL1
outcome_measure: EC50 (nM)
Answer in nM, number only, no unit symbol.

For record `CC(C)C[C@H](CO)Nc1nc(S[C@@H](C)c2ccccc2)nc2nc(N)sc12` the listed EC50 is 310

###

- experimental_target: CX3CR1 (RPMI-8226 cells) (Homo sapiens, UniProt P49238)
- Construct: RPMI-8226 cells, a human B-lymphocyte cell line endogenously expressing human CX3CR1; CCL-155
- assay_details: Dynamic mass redistribution (DMR), RPMI-8226 cells
- recorded_conditions: n=3
outcome_measure: EC50 (nM)
Use nM as the unit, but write only the number.

Item: CC(C)C[C@H](CO)Nc1nc(S[C@@H](C)c2ccccc2)nc2nc(N)sc12 [AZD8797] | EC50: 410
